Readings of pSTAT3 (MFI) in CD4 T cells at 0.0001 µM for the listed binders
Target: T1, IL10Rα and IL2Rγ on human primary cells (CD8 T cells, CD4 T cells, monocytes) (human) (UniProt Q13651)
T1 sequence (looked up) 1: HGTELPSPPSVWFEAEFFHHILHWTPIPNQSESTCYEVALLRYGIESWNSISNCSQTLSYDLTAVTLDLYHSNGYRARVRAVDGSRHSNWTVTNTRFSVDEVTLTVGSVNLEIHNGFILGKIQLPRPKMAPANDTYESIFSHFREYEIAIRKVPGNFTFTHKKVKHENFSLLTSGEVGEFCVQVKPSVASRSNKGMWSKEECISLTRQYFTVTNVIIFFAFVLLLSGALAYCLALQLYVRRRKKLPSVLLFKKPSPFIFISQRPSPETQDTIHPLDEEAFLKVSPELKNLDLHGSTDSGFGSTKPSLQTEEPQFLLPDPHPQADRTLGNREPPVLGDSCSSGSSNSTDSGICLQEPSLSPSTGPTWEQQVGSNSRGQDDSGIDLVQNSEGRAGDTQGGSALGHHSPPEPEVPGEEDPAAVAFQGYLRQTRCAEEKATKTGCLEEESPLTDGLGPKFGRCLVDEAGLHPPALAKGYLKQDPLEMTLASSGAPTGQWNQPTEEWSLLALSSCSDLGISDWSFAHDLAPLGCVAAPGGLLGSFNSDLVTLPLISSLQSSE
T1 sequence (looked up) 2: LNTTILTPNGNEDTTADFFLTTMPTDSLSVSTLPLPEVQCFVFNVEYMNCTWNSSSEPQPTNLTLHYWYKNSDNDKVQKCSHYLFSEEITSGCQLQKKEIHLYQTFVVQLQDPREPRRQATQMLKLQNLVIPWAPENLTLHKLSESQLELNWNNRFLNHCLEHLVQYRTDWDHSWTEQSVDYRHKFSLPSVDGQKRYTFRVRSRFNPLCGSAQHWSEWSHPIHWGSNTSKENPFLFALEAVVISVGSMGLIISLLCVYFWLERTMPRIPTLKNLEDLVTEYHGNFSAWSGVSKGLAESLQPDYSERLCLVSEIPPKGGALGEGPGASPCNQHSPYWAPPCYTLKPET
Experiment: cell-based or functional assay

| Binder | Readout units | pSTAT3 (MFI) in CD4 T cells at 0.0001 µM |
| --- | --- | --- |
| hIL10Ra_VHH14-hIL2Rg_VHH19, linker …, tag his (bispecific antibody, not shown: small tags and cut ends) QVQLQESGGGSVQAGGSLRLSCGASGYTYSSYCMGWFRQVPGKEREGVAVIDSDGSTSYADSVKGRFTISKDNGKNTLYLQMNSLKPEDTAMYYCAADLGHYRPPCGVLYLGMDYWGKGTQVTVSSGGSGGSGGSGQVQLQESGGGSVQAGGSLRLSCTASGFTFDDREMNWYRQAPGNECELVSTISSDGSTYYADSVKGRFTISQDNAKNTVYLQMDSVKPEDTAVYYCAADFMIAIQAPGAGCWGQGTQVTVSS | MFI | 12800 |
| hIL10Ra_VHH14-hIL2Rg_VHH19, linker GS, tag his (bispecific antibody, not shown: small tags and cut ends) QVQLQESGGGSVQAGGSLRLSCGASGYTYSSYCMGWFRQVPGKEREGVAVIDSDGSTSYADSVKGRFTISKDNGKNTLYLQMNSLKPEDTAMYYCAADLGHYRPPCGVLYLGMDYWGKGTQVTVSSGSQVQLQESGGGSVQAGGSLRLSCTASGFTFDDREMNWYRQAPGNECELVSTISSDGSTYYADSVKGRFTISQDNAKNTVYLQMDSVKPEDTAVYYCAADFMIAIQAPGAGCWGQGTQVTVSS | MFI | 11700 |
| hIL10Ra_VHH14-hIL2Rg_VHH19, linker GGGS, tag his (bispecific antibody, not shown: small tags and cut ends) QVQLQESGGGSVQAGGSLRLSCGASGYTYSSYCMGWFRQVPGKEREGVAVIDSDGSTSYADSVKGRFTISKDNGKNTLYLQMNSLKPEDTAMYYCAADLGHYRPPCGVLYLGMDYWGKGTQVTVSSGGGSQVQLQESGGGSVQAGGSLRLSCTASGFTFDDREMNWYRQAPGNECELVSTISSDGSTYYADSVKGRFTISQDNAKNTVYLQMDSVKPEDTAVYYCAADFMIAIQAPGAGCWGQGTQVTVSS | MFI | 11900 |
